Entries and their measured Inhibition follow.
- Tested on: Plasmodium falciparum
- Experiment: GSK_TCMDC: Inhibition of Plasmodium falciparum 3D7 in whole red blood cells, using parasite LDH activity as an index of growth. Test compounds present at 2uM
- Assay type: functional
# unit: % | format: bare number

>>> print(df.to_string())
                                   molecule          target_system  measured_attribute  recorded_number
0  CCOC(=O)c1c(NC(NC(=O)c2ccc(C(C)(C)C)cc2)C(Cl)(Cl)Cl)sc2c1CCCC2 (stereo not given)  Plasmodium falciparum          Inhibition               98
1  O=C(Nc1ccc(Cl)cc1)Nc1ccc(-c2csc(-c3nc4ccccc4[nH]3)c2)cc1  Plasmodium falciparum          Inhibition               90
2  CC1(C)CCC(C)(C)c2c1ccc(C1CCN(CCCCNC(=O)c3ccc(-c4ccc(C#N)cc4)cc3)CC1)c2O  Plasmodium falciparum          Inhibition              100

Please fill in: Inhibition reported for CNC(=O)c1cnc(Nc2ccc(N3CCN(C)CC3)cc2)nc1Nc1ccccc1OC.O=C(O)C(F)(F)F = 100

Please fill in: Inhibition reported for COc1cc(C2CCCCC2)c(OC)cc1CC1c2cc(O)c(Cl)cc2CCN1C.Cl (stereo not given) = 100
